Assay: In vivo plaque retention of sanguinarine (HPLC)
Settings: human, in vivo, po, In Vivo Plaque Retention of Sanguinarine
Description: This was the oral rinse used for the tests described in Tables I, II, and III.

# given.smiles, concentration at 2 h (ng/g)
rows = [
    ("C[n+]1cc2c3c(ccc2c2ccc4cc5c(cc4c21)OCO5)OCO3", 27000),
]

---

assay: In vivo plaque retention of sanguinarine (HPLC); conditions: human, in vivo, po, In Vivo Plaque Retention of Sanguinarine
measurement.name: concentration at 1 h (ng/g)

# given.smiles, meas.value
records = [
    ("C[n+]1cc2c3c(ccc2c2ccc4cc5c(cc4c21)OCO5)OCO3", 56000),
]
